Biological target: Renin (Homo sapiens, UniProt P00797)
Sequence (P00797 whole entry): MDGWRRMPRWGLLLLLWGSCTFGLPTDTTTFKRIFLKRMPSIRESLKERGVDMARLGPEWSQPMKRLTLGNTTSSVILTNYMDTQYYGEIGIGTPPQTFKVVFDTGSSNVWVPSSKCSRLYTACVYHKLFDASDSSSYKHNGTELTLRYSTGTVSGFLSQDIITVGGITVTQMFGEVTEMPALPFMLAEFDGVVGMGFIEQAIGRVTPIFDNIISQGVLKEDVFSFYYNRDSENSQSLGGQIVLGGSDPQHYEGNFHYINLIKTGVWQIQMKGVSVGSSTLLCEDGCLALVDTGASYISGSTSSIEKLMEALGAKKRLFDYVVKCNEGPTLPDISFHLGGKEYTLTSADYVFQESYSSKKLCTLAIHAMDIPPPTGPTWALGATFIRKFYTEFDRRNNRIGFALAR
Test: Inhibition of trypsin-activated human recombinant renin using (Arg-Glu(EDANS)-Ile-His-Pro-Phe-His-Leu-Val-Ile-His-Thr-Lys(DABCYL)-Arg) as substrate incubated for 10 mins prior to substrate addition measured after 90 mins by fluorescence assay
Below is a list of entries, each paired with its recorded IC50 value.
Field: numeric (nM). Do not append units.

Worked cases, IC50 given:
Chemical Structure	Assay System	Readout Number
Cc1ccc(F)cc1N1CC(C)(C)N([C@H]2CNC[C@@H](C(=O)N[C@H](CC(C)C)c3ccc(F)cn3)C2)CC1=O	Renin (Homo sapiens, UniProt P00797)	1.3
CC[C@@H](NC(=O)[C@@H]1CNC[C@H](N2CC(=O)N(c3ccccc3Cl)CC2(C)C)C1)c1ccccc1F	Renin (Homo sapiens, UniProt P00797)	3.3
CC[C@@H](NC(=O)[C@@H]1CNC[C@H](N2CC(=O)N(c3ccccc3Cl)CC2(C)C)C1)c1cccc(F)c1	Renin (Homo sapiens, UniProt P00797)	1.8
CC[C@@H](NC(=O)[C@@H]1CNC[C@H](N2CC(=O)N(c3ccccc3Cl)CC2(C)C)C1)c1cccc(Cl)c1	Renin (Homo sapiens, UniProt P00797)	2.3

Attention now shifts to the item below.
-- ask For the compound CC(C)C[C@@H](NC(=O)[C@@H]1CNC[C@H](N2CC(=O)N(c3ccccc3Cl)CC2(C)C)C1)c1ccno1 , report IC50.
-- reply 1.1
